Experiment: total protein half-life in vivo (active degradation + dilution); higher = more stable protein
Conditions: wild type E. coli NCM3722; growth: N-lim chemostat; doubling time 12 h
Endpoint Label: total protein half-life in vivo (h)
Provide the reading as a plain figure in h.

Sample MTEPLKPRIDFDGPLEVDQNPKFRAQQTFDENQAQNFAPATLDEAQEEEGQVEAVMDAALRPKRSLWRKMVMGGLALFGASVVGQGVQWTMNAWQTQDWVALGGCAAGALIIGAGVGSVVTEWRRLWRLRQRAHERDEARDLLHSHGTGKGRAFCEKLAQQAGIDQSHPALQRWYASIHETQNDREVVSLYAHLVQPVLDAQARREISRSAAESTLMIAVSPLALVDMAFIAWRNLRLINRIATLYGIELGYYSRLRLFKLVLLNIAFAGASELVREVGMDWMSQDLAARLSTRAAQGIGAGLLTARLGIKAMELCRPLPWIDDDKPRLGDFRRQLIGQVKETLQKGKTPSEK [P0A8R7] ; total protein half-life in vivo observed: 8.5
